- Substrate: pcPET (post-consumer)
- test-protocol: Proxy for plastic degradation [Released monomer concentration (HPLC/LC-MS) (TPA+MHET+BHET)]
- measurement-setup: pH 9; 40 °C; 24 h
measurement-label: Proxy for plastic degradation (µM)

[
  {
    "protein": "unnamed (protein) MLSFLRSTGRPERRRASLPALLLFTAALVASGLTAAPAAQAADNPYQRGPDPTNASIEAATGPFAVGTQPIVGASGFGGGQIYYPTDTSQTYGAVVIVPGFISVWAQLNWLGPRLASQGFVVIGIETSVITDLPDPRGDQALAALDWATTRSPVASRIDRTRLAAAGWSMGGGGLRRAALQRPSLKAIVGMAPWNGERNWSAVTVPTLFFGGSSDAVASPNDHAKPFYNSITRAEKDYIELRNADHFFPTSANTTMAKYFISWLKRWVDNDTRYTQFLCPGPSTGLFAPVSASRNTCPF",
    "measurement-label": "Proxy for plastic degradation",
    "result-units": "µM",
    "measured": 310
  }
]

Values were extracted from the PETadex activity labels (doi:10.1038/s41467-023-40233-w).
